tested on: TAB165; experiment: qHTS profiling for inhibitors of Plasmodium falciparum proliferation (AID 504749); also: nearly all actives have a fitted effect of over 60% in size; also: potency is read from the fitted curve at half-maximal effect; conditions: P. falciparum in erythrocytes, SYBR Green DNA, 72 h; series mostly up to 28.7 µM
Records with an inconclusive call do not appear. Calls of active or inactive are those of the source. Calls follow the shape of the dose curve; as a rule, active = well fitted inhibition curve with a large enough effect; inconclusive = small, poorly fitted or top-dose-only effect; inactive = flat fitted curve, though single readings scatter.

compound | measurement target | Potency
CCCCC[C@H](O)/C=C/[C@@H]1[C@@H](C/C=C\CCCC(=O)O)[C@@H](O)C[C@H]1O | TAB165 | inactive
CC1OC1P(=O)(O)O (stereo unspecified) | TAB165 | inactive
[O-][n+]1ccccc1SSc1cccc[n+]1[O-] | TAB165 | 891 nM (active)
COc1cc2c3cc1Oc1cc(ccc1O)C[C@@H]1c4c(cc(OC)c(O)c4Oc4ccc(cc4)C[C@@H]3N(C)CC2)CC[N+]1(C)C | TAB165 | inactive
CCCCCCCCCCCCCCCCCC(=O)O | TAB165 | inactive
CCCCCC[C@@H](O)C/C=C\CCCCCCCC(=O)O | TAB165 | inactive

Data credit: PubChem BioAssay (NCATS)
